# System name: ZAP-70 (Homo sapiens, UniProt P43403)
# Construct: endogenous in cells
# Sequence (P43403 whole entry): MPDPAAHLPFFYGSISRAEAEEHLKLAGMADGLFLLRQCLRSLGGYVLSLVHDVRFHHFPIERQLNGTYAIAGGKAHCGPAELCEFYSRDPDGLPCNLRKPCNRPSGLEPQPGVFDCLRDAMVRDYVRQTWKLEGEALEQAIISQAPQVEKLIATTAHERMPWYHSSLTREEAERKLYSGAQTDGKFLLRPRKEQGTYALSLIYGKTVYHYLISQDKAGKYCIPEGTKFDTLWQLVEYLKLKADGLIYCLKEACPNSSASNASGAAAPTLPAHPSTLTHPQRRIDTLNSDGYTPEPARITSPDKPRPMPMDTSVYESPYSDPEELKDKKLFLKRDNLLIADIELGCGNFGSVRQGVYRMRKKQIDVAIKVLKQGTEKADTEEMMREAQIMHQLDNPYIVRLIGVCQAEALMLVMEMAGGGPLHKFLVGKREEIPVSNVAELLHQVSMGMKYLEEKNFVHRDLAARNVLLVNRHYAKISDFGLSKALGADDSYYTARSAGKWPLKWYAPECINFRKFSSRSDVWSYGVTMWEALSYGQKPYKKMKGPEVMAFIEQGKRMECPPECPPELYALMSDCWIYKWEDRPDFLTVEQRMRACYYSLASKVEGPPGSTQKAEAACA
# Test protocol: ZAP-70 kinobeads assay
# Details: competition with immobilized aminopyrido-pyrimidine ligand 24 in cell lysate; ZAP-70 detected by dot blot
Entries and their IC50 values follow.

>>> value_measured("COc1cc(Nc2ncc(F)c(Nc3cccc(Cl)c3NS(C)(=O)=O)n2)cc(OC)c1OC")
"100 to 1000 nM"
>>> value_measured("COc1ccc(Nc2nc(Nc3ccc(OC)c(OC)c3)ncc2F)c(NS(C)(=O)=O)c1")
"< 100 nM"
>>> value_measured("CS(=O)(=O)Nc1ccccc1Nc1nc(Nc2cccc(-n3cncn3)c2)ncc1F")
"1000 to 10000 nM"
>>> value_measured("Cc1nnnn1-c1cccc(Nc2ncc(F)c(Nc3ccccc3NS(C)(=O)=O)n2)c1")
"1000 to 10000 nM"
>>> value_measured("COc1ccc(Nc2nc(Nc3ccc(OC)c(OC)c3)ncc2Cl)c(NS(C)(=O)=O)c1")
"< 100 nM"
>>> value_measured("COc1cc(Nc2ncc(F)c(Nc3cccc(C)c3NS(C)(=O)=O)n2)cc(OCCN2CCCCC2)c1OC")
"< 100 nM"

# evaluate next
Qu. Form field: reported IC50 of `COc1cc(Nc2ncc(F)c(Nc3ccccc3NS(=O)(=O)c3cccnc3)n2)cc(OC)c1OC`
Ans. 1000 to 10000 nM
